- measurement.target: HLA-B*15:01
- experiment.notes: IEDB peptide-MHC binding, purified MHC/competitive/fluorescence; bounds were set here for any values at or beyond the usual limits of such assays
- condition.context: source organism: Vaccinia virus Copenhagen
observed.property: pIC50
In plain terms, pIC50 is the concentration in mol/L turned into minus its base-10 logarithm.

IMLEGETKL 4.37

Kindly review the next sequence as well.
Lookup result for FINKLNGAM ; measured pIC50: 4.56

====

- measurement.target: HLA-B*48:01
- experiment.notes: IEDB peptide-MHC binding, purified MHC/direct/fluorescence; filed as Kd, often an IC50 or EC50 that approximates it; bounds were set here for any values at or beyond the usual limits of such assays
- condition.context: source organism: Giardia lamblia ATCC 50803
pKd: −log10 of the molar value.
observed.property: pKd

Lookup result for RIGGVLIFR ; measured pKd: ≤ 4.70

====

- measurement.target: HLA-B*39:01
- experiment.notes: IEDB peptide-MHC binding, purified MHC/competitive/fluorescence; filed as Kd, often an IC50 or EC50 that approximates it; bounds were set here for any values at or beyond the usual limits of such assays
- condition.context: source organism: Orthohantavirus andesense
observed.property: Kd

VSANVKGNW ≥ 20 µM

Lookup result for NALEKALRW ; measured Kd: ≥ 20 µM

====

- measurement.target: HLA-C*14:02
- experiment.notes: IEDB peptide-MHC binding, purified MHC/direct/fluorescence; filed as Kd, often an IC50 or EC50 that approximates it; bounds were set here for any values at or beyond the usual limits of such assays
- condition.context: source organism: Salmonella enterica subsp. enterica serovar Typhi str. CT18
observed.property: pKd
In plain terms, pKd is the concentration in mol/L turned into minus its base-10 logarithm.

Item: AETLMAQPF | System: HLA-C*14:02 | pKd: 5.64

====

- measurement.target: HLA-B*57:01
- experiment.notes: IEDB peptide-MHC binding, purified MHC/direct/fluorescence; filed as Kd, often an IC50 or EC50 that approximates it; bounds were set here for any values at or beyond the usual limits of such assays
- condition.context: source organism: Escherichia coli O157:H7
observed.property: Kd

Lookup result for EQRLIDICV ; measured Kd: ≥ 20 µM

====

- measurement.target: HLA-A*03:01
- experiment.notes: IEDB peptide-MHC binding, purified MHC/direct/fluorescence; filed as Kd, often an IC50 or EC50 that approximates it; bounds were set here for any values at or beyond the usual limits of such assays
- condition.context: source organism: Lechiguanas virus
pKd: −log10 of the molar value.
observed.property: pKd

Lookup result for AMPKTIYEL ; measured pKd: ≤ 4.70

====

- measurement.target: HLA-C*14:02
- experiment.notes: IEDB peptide-MHC binding, purified MHC/direct/fluorescence; filed as Kd, often an IC50 or EC50 that approximates it; bounds were set here for any values at or beyond the usual limits of such assays
- condition.context: source organism: Yersinia pestis Nepal516
observed.property: Kd (µM)
Response body: numeric value in µM, unit text excluded.

Lookup result for YMYDFILRF ; measured Kd: 4.11

====

We begin with a simple list: items and their reported Kd.
- measurement.target: HLA-A*03:01
- experiment.notes: IEDB peptide-MHC binding, purified MHC/direct/fluorescence; filed as Kd, often an IC50 or EC50 that approximates it; bounds were set here for any values at or beyond the usual limits of such assays
- condition.context: source organism: Orthohantavirus andesense

These recorded examples may help you get a feel for the data.
NALEKALRW ≥ 20 µM
VSANVKGNW ≥ 20 µM

Kindly review the next sequence as well.
Lookup result for LVTARQKLK ; measured Kd: 9 µM
